# Experimental target: DR4Dw4 (DRA1*0101 DRB1*0401) (Homo sapiens, UniProt P01903+P01911, A100K/A169T/F76Y/I96L/K127E/L162R/M171V/N62H/P40V/Q125Y/R42H/S133A/S149N/S66Y/V115G/V209L/W38E)
# Procedure text: Competitive binding to MHC-II protein DR4Dw4
Numbered stars: 1 amine (or outer) side, 2 acyl side, 3 side chain; on linkers, the order of the positions; unused ones are H or OH. Square brackets hold non-standard residues; d marks the D form. Peptide text beside a SMILES is read from it. * marks the point of attachment. ξ: configuration not given here. Gly(1-amidinopiperidin-4-yl) = N=C(N)N1CCC([C@H](N)C(=O)O)CC1; X1 = CC(C)c1oc([C@H](CO)N[*:1])nc1C(=O)[*:2]; Pro(3R-Ph) = O=C(O)[C@H]1NCC[C@@H]1c1ccccc1; Tic = O=C(O)[C@@H]1Cc2ccccc2CN1; Cha = N[C@@H](CC1CCCCC1)C(=O)O; NHPhenethyl = c1ccc(CCN*)cc1; ξDisc = O=C(O)C1NCc2ccccc21; Nle = CCCC[C@H](N)C(=O)O
Recorded metric: IC50
Please answer using a numeric value trailed by its unit.

| Compound | IC50 |
| --- | --- |
| CSCC[C@H](NC(=O)[C@@H]1Cc2ccccc2CN1C(=O)[C@H](CCCNC(=N)N)NC(=O)[C@H](CC1CCCCC1)NC(C)=O)C(=O)N1CC[C@H](c2ccccc2)[C@H]1C(N)=O [Compound P31, Ac-Cha-Arg-Tic-Met-βPhPro-NH2] (Ac-[Cha]R[Tic]M[Pro(3R-Ph)]-NH2) | 0.28 µM |

Query: # get_value(readout='IC50', item= CCCC[C@H](NC(=O)[C@@H]1Cc2ccccc2CN1C(=O)[C@@H](NC(=O)[C@H](CC1CCCCC1)NC(C)=O)C1CCN(C(=N)N)CC1)C(=O)NCCc1ccccc1 [Compound P69, Ac-Cha-Gpg-Tic-Nle-N(H)CH2CH2Ph] (Ac-[Cha][Gly(1-amidinopiperidin-4-yl)][Tic][Nle]-NHPhenethyl) )
Reply: 3.6 µM

Query: # get_value(readout='IC50', item= CCCC[C@H](NC(=O)C1c2ccccc2CN1C(=O)[C@@H](NC(=O)[C@H](CC1CCCCC1)NC(C)=O)C1CCN(C(=N)N)CC1)C(=O)N1CC[C@H](c2ccccc2)[C@H]1C(=O)N[C@@H](CO)c1nc(C(=O)N(C)C)c(C(C)C)o1 (stereo partly drawn) [Compound P81-1] (Ac-[Cha][Gly(1-amidinopiperidin-4-yl)][ξDisc][Nle][Pro(3R-Ph)][X1]-NMe2) )
Reply: 0.26 µM

---

Reported Stability (Arbitrary units) Cath D 4 h values, Cathepsin D (EC 3.4.23.5 from bovine spleen) (Bos taurus, UniProt P80209).
Square brackets hold non-standard residues; d marks the D form. Peptide text beside a SMILES is read from it. * marks the point of attachment. Gly(1-amidinopiperidin-4-yl) = N=C(N)N1CCC([C@H](N)C(=O)O)CC1; Pro(3R-Ph) = O=C(O)[C@H]1NCC[C@@H]1c1ccccc1; Tic = O=C(O)[C@@H]1Cc2ccccc2CN1; Cha = N[C@@H](CC1CCCCC1)C(=O)O; X4 = OCCOCCN(CCc1ccccc1)*; Nle = CCCC[C@H](N)C(=O)O; X2 = OCCOCCN(Cc1ccccc1)*; X6 = OCCN(CCc1ccccc1)*
Give just the numeric value; Arbitrary units need not be written.

Previously resolved entries follow.
| Compound | Stability (Arbitrary units) Cath D 4 h |
| --- | --- |
| CSCC[C@H](NC(=O)[C@@H]1Cc2ccccc2CN1C(=O)[C@H](CCCNC(=N)N)NC(=O)[C@H](CC1CCCCC1)NC(C)=O)C(=O)N1CC[C@H](c2ccccc2)[C@H]1C(N)=O [Compound P31, Ac-Cha-Arg-Tic-Met-βPhPro-NH2] (Ac-[Cha]R[Tic]M[Pro(3R-Ph)]-NH2) | 95 |
| CSCC[C@H](NC(=O)[C@@H]1Cc2ccccc2CN1C(=O)[C@@H](NC(=O)[C@H](CC1CCCCC1)NC(C)=O)C1CCN(C(=N)N)CC1)C(=O)N(CCOCCO)Cc1ccccc1 [Compound P102, Ac-Cha-Gpg-Tic-Met-N(Bn)CH2CH2OCH2CH2OH] (Ac-[Cha][Gly(1-amidinopiperidin-4-yl)][Tic]M-X2) | 120 |
| CCCC[C@H](NC(=O)[C@@H]1Cc2ccccc2CN1C(=O)[C@H](CCCNC(=N)N)NC(=O)[C@H](CC1CCCCC1)NC(C)=O)C(=O)N(CCOCCO)CCc1ccccc1 [Compound P88] (Ac-[Cha]R[Tic][Nle]-X4) | 101 |

Query: # get_value(readout='Stability (Arbitrary units) Cath D 4 h', item= CCCC[C@H](NC(=O)[C@@H]1Cc2ccccc2CN1C(=O)[C@H](CCCNC(=N)N)NC(=O)[C@H](CC1CCCCC1)NC(C)=O)C(=O)N(CCO)CCc1ccccc1 [Compound P81, Ac-Cha-Arg-Tic-Nle-N(CH2CH2OH)CH2CH2Ph] (Ac-[Cha]R[Tic][Nle]-X6) )
Reply: 99
